experiment: NCI Yeast Anticancer Drug Screen. Data for the bub3 strain (AID 167); conditions: S. cerevisiae bub3 mutant strain, at 50.0 µM, stronger effect = higher value
This is part of a sample that, as a whole, favours compounds with a hit. Of some 79,000 tested, about 15% had one in any assay. Activity calls are given as the source filed them. Cut-off read from the data, not from the text of the source: active = growth inhibition above about 70%; inactive = the rest.
experimental_endpoint: growth inhibition

Consider the reported growth inhibition for these compounds:
compound: O=C1CCC(=O)N1n1c(Cc2ccc(Cl)cc2)n[nH]c1=O
growth inhibition: 12.8% (inactive)
--
compound: c1ccc(/C2=C(\c3ccccc3)CSSSSC2)cc1
growth inhibition: 62.9% (inactive)
--
compound: Oc1ccccc1C1SC(c2ccccc2O)SC(c2ccccc2O)S1 (stereo unspecified)
growth inhibition: 97% (active)
--
compound: COC(=O)C(=O)Cc1nc2ccccc2s1
growth inhibition: -7.3% (inactive)
--
compound: CC(=O)c1ccc(OCc2ccccc2)c(OCc2ccccc2)c1
growth inhibition: 22.1% (inactive)

## Input Note down growth inhibition recorded for `Cc1cc(Br)c(I)c([N+](=O)[O-])c1`
## Output 7.45% (inactive)

## Input Note down growth inhibition recorded for `COC1=Cc2nc3ccccc3nc2OC1(C)C`
## Output 17.8% (inactive)

## Input Note down growth inhibition recorded for C/C=C(\C)C(=O)OC1CC(C)(O)C(=O)C(OC(=O)/C(C)=C/C)C2(C)CCC(O)(C(C)C)C12 (stereo unspecified)
## Output -15% (inactive)
